The measurements presented in this section are drawn from patent US20110212948A1.

Assay: Multiple dose study: peak and trough plasma meloxicam concentrations
Format: in vivo, foals
Settings: horse, in vivo; foals, 0.6 mg/kg by mouth every 12 hours for 14 days, 2 h after morning dose; read-out: Peak serum concentrations with repeated dosing
endpoint: concentration at 2 h

Looking for the measured concentration at 2 h of `Cc1cnc(NC(=O)C2=C(O)c3ccccc3S(=O)(=O)N2C)s1` , can you help?
500 to 1200 ng/mL

---

Assay: Multiple dose study: peak and trough plasma meloxicam concentrations
Type: in vivo, foals
Conditions: horse, in vivo; foals less than 6 weeks, 0.6 mg/kg by mouth every 12 hours
endpoint: concentration at 14 days

If you can, please state the reported concentration at 14 days value of `Cc1cnc(NC(=O)C2=C(O)c3ccccc3S(=O)(=O)N2C)s1` .
100 to 1000 ng/mL
